Please respond with reported EC50 for every item in the list.
Target: hGcgR (Homo sapiens, UniProt P47871)
Sequence (P47871 26-477): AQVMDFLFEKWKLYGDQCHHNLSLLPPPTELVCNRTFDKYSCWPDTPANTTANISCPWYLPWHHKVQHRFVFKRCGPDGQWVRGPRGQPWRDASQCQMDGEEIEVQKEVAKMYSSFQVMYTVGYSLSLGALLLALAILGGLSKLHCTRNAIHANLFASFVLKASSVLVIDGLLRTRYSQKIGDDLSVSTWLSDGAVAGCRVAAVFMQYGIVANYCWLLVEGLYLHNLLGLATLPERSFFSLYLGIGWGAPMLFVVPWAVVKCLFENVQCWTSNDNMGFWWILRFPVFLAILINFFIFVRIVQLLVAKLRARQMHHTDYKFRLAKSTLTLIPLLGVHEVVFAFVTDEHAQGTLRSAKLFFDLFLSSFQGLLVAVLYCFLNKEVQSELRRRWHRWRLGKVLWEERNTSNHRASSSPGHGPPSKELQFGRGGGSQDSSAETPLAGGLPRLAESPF
Test: Functional cAMP activation in the presence of 0.1% casein (no HSA);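 note: intracellular cAMP rise after 30 min at 37 °C, read by HTRF against a cAMP standard curve, scaled from buffer only (0%) to maximal control ligand response (100%)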
Assay type: cell-based
Conditions: read-out: Relative cAMP EC50, hGcgR
Starred links: 1 amine or outer side, 2 acyl side, 3 side chain; linkers in the order of their positions; H or OH if unused. Non-standard residues stand in square brackets, D forms with d. Groups on a side chain read outwards from the residue. No end group written: not given here. *: point of attachment. C18 diacid = O=C(O)CCCCCCCCCCCCCCCCC(=O)*; αMePhe(2-F) = C[C@](N)(Cc1ccccc1F)C(=O)O; γGlu = O=C(O)[C@H](CCC(=O)[*:2])N[*:1]; αMe4Pal = C[C@](N)(Cc1ccncc1)C(=O)O; αMeY = C[C@](N)(Cc1ccc(O)cc1)C(=O)O; 4Pal = N[C@@H](Cc1ccncc1)C(=O)O; αMeL = CC(C)C[C@](C)(N)C(=O)O; αMeS = C[C@](N)(CO)C(=O)O; Orn = NCCC[C@H](N)C(=O)O; AEEA = NCCOCCOCC(=O)O; Aib = CC(C)(N)C(=O)O
Answers are plain numbers, in nM.

Sample answers from the record:
{"substance": "H-Y[Aib]QGT[αMePhe(2-F)]TSD[4Pal][αMeS]ILLD[Orn]K([γGlu-γGlu-C18 diacid])AQ[Aib][Orn]FI[dE]YLIEGGPSSGEPPPEGSEE-NH2 [Example 603]", "measurement.kind": "EC50", "u": "nM", "measurement": 5.43}
{"substance": "H-Y[Aib]QGT[αMePhe(2-F)]TSD[4Pal]SI[αMeL]LDKK([γGlu-γGlu-C18 diacid])AQ[Aib]AFIEYLEEGGPSSGAPPPSGTGE-NH2 [Example 622]", "measurement.kind": "EC50", "u": "nM", "measurement": 7.7}
{"substance": "H-Y[Aib]QGT[αMePhe(2-F)]TSD[4Pal]SI[αMeL]LD[Orn]K([AEEA-γGlu-C18 diacid])AQ[αMe4Pal][Orn]FI[dE][αMeY]LIEGGPSSGEPPPEEG-NH2 [Example 475]", "measurement.kind": "EC50", "u": "nM", "measurement": 2.24}
{"substance": "H-Y[Aib]QGT[αMePhe(2-F)]TSD[4Pal][αMeS]I[αMeL]LD[Orn]K([γGlu-γGlu-C18 diacid])AQ[Aib][Orn]FI[dE][αMeY]LTEGGPSSGEPPPSGTE-NH2 [Example 542]", "measurement.kind": "EC50", "u": "nM", "measurement": 5.03}
{"substance": "Y[Aib]QGT[αMePhe(2-F)]TSD[4Pal][αMeS]I[αMeL]LD[Orn]K([γGlu-γGlu-C18 diacid])AQ[Aib][Orn]FI[dE][αMeY]LQEGGPSSGEPPPSGTE-NH2 [Example 504]", "measurement.kind": "EC50", "u": "nM", "measurement": 2.83}

Would you mind giving EC50 for every substance in the list below?
1. H-Y[Aib]QGT[αMePhe(2-F)]TSD[4Pal][αMeS]ILLD[Orn]K([γGlu-γGlu-C18 diacid])AQ[Aib][Orn]FI[dE]YLIEGGPSSGEPPPEGTEE-NH2 [Example 556]
2. H-Y[Aib]QGT[αMePhe(2-F)]TSD[4Pal][αMeS]I[αMeL]LD[Orn]K([γGlu-γGlu-C18 diacid])AQ[αMe4Pal]EFI[dE][αMeY]LIEGGPSSGAPPPSGSE-NH2 [Example 717]
3. H-Y[Aib]QGT[αMePhe(2-F)]TSD[4Pal][αMeS]I[αMeL]LD[Orn]K([AEEA-AEEA-γGlu-C18 diacid])AQ[Aib][Orn]FI[dE][αMeY]LIEGGPSSGAPEPSEG-NH2 [Example 472]
4. Y[Aib]QGT[αMePhe(2-F)]TSD[4Pal][αMeS]I[αMeL]LD[Orn]K([AEEA-γGlu-C18 diacid])AQ[αMe4Pal]EFI[dE][αMeY]LIEGGPSSGEPPPEGTGE-NH2 [Example 763]
5. H-Y[Aib]QGT[αMePhe(2-F)]TSD[4Pal]SILLD[Orn]K([γGlu-γGlu-C18 diacid])AQ[Aib]AFIEYLQEGGPSSGAPPPSGTEE-NH2 [Example 581]

// result
1. 4.14
2. 1.14
3. 2.73
4. 1.57
5. 8.18

FYI, the data here is from patent US20240270821A1.
